Measured Average weight, listed per entry for reference.
Test system: Mus musculus
Test: Average weight of the mouse after treating with 20 mg/kg dose for 1 day.
Assay type: functional
Set-up: unit not given here
Could you keep your reply to the number by itself?

Recorded Average weight, per entry:
molecule | assay-target | Average weight
CCOCCOC(=O)CCC(NC(=O)c1ccc(N(C)Cc2cnc3nc(N)nc(N)c3n2)cc1)C(=O)OCCOCC (configuration not stated) | Mus musculus | 22.6
CN(Cc1cnc2nc(N)nc(N)c2n1)c1ccc(C(=O)NC(CCC(=O)OCc2cc3c(cc2Cl)OCO3)C(=O)OCc2cc3c(cc2Cl)OCO3)cc1 (configuration not stated) | Mus musculus | 22.2

// Input: Cc1cc(C)c(COC(=O)CCC(NC(=O)c2ccc(N(C)Cc3cnc4nc(N)nc(N)c4n3)cc2)C(=O)OCc2c(C)cc(C)cc2C)c(C)c1 (configuration not stated) . Output its Average weight only.
20.4

// Input: CCCCOC(=O)C(CCC(=O)OCc1cccnc1)NC(=O)c1ccc(N(C)Cc2cnc3nc(N)nc(N)c3n2)cc1 (configuration not stated) . Output its Average weight only.
21.1

###

Measured Weight change, listed per entry for reference.
System: Mus musculus
Experiment: Average weight of the mouse after treating with 40 mg/kg dose for 7 days.
Format: functional
Design: unit not given beside the values
Could you keep your reply to the number by itself?

Recorded Weight change, per entry:
molecule | Weight change
CC(C)CCOC(=O)CCC(NC(=O)c1cc(Cl)c(N(C)Cc2cnc3nc(N)nc(N)c3n2)c(Cl)c1)C(=O)OCCC(C)C (stereo unspecified) | 0.1
CN(Cc1cnc2nc(N)nc(N)c2n1)c1ccc(C(=O)NC(CCC(=O)OCc2cccnc2)C(=O)OCc2cccnc2)cc1 (stereo unspecified) | 2
CN(Cc1cnc2nc(N)nc(N)c2n1)c1ccc(C(=O)NC(CCC(=O)OCc2cc3c(cc2Cl)OCO3)C(=O)OCc2cc3c(cc2Cl)OCO3)cc1 (stereo unspecified) | 0.2
CC(C)COC(=O)CCC(NC(=O)c1cc(Cl)c(N(C)Cc2cnc3nc(N)nc(N)c3n2)c(Cl)c1)C(=O)OCC(C)C (stereo unspecified) | 0.1
CCCCOC(=O)C(CCC(=O)OCc1cccnc1)NC(=O)c1ccc(N(C)Cc2cnc3nc(N)nc(N)c3n2)cc1 (stereo unspecified) | 1.7

Continue with the next molecule.
// Input: CCCC(C)OC(=O)CCC(NC(=O)c1cc(Cl)c(N(C)Cc2cnc3nc(N)nc(N)c3n2)c(Cl)c1)C(=O)OC(C)CCC (stereo unspecified) . Output its Weight change only.
0.1

###

Measured ILS at 20 mg/kg, listed per entry for reference.
System: L1210
Assay: In vivo antitumor activity against L1210 leukemia in 5 mice measured as Increased life span at 20 mg/kg.
Type: functional
Settings: Mus musculus
Give just the number in %; leave the unit off.

compound | measured-quantity | value-measured
CCCCCOC(=O)CCC(NC(=O)c1ccc(N(C)Cc2cnc3nc(N)nc(N)c3n2)cc1)C(=O)OCCCCC (centres undefined) | ILS at 20 mg/kg | 55
CC(C)CCOC(=O)CCC(NC(=O)c1cc(Cl)c(N(C)Cc2cnc3nc(N)nc(N)c3n2)c(Cl)c1)C(=O)OCCC(C)C (centres undefined) | ILS at 20 mg/kg | 44
CCCCOC(=O)C(CCC(=O)OCc1cccnc1)NC(=O)c1ccc(N(C)Cc2cnc3nc(N)nc(N)c3n2)cc1 (centres undefined) | ILS at 20 mg/kg | 50

Continue with the next compound.
// Input: CN(Cc1cnc2nc(N)nc(N)c2n1)c1ccc(C(=O)NC(CCC(=O)OCc2cc3c(cc2Cl)OCO3)C(=O)OCc2cc3c(cc2Cl)OCO3)cc1 (centres undefined) . Output its ILS at 20 mg/kg only.
100

###

Tested on: Mus musculus
Experiment: Average weight of the mouse after treating with 20 mg/kg dose for 1 day.
Type: functional
Parameters: unit not given here
measured-quantity: Average weight
Could you keep your reply to the number by itself?

Recorded Average weight, per entry:
molecule | Average weight
CN(Cc1cnc2nc(N)nc(N)c2n1)c1ccc(C(=O)NC(CCC(=O)OCc2c(Cl)cccc2Cl)C(=O)OCc2c(Cl)cccc2Cl)cc1 (centres undefined) | 22.4
CCCC(C)OC(=O)CCC(NC(=O)c1cc(Cl)c(N(C)Cc2cnc3nc(N)nc(N)c3n2)c(Cl)c1)C(=O)OC(C)CCC (centres undefined) | 22.1
CN(Cc1cnc2nc(N)nc(N)c2n1)c1ccc(C(=O)NC(CCC(=O)OCc2cccnc2)C(=O)OCc2cccnc2)cc1 (centres undefined) | 22

// Input: CC(C)CCOC(=O)CCC(NC(=O)c1ccc(N(C)Cc2cnc3nc(N)nc(N)c3n2)cc1)C(=O)OCCC(C)C (centres undefined) . Output its Average weight only.
23.7

###

Test system: L1210
Test: In vivo antitumor activity against L1210 leukemia in 5 mice measured as Increased life span at 20 mg/kg.
Assay type: functional
Details: Mus musculus
Measured ILS at 20 mg/kg, listed per entry for reference.
Give just the number in %; leave the unit off.

compound | ILS at 20 mg/kg / %
CCOCCOC(=O)CCC(NC(=O)c1ccc(N(C)Cc2cnc3nc(N)nc(N)c3n2)cc1)C(=O)OCCOCC (configuration not stated) | 44
CN(Cc1cnc2nc(N)nc(N)c2n1)c1ccc(C(=O)NC(CCC(=O)OCc2c(Cl)cccc2Cl)C(=O)OCc2c(Cl)cccc2Cl)cc1 (configuration not stated) | 167

Please tell me the measured ILS at 20 mg/kg for Cc1ccc(C)c(COC(=O)CCC(NC(=O)c2ccc(N(C)Cc3cnc4nc(N)nc(N)c4n3)cc2)C(=O)OCc2cc(C)ccc2C)c1 (configuration not stated) ; system: L1210.
111

Please tell me the measured ILS at 20 mg/kg for CC(C)CCOC(=O)CCC(NC(=O)c1ccc(N(C)Cc2cnc3nc(N)nc(N)c3n2)cc1)C(=O)OCCC(C)C (configuration not stated) ; system: L1210.
33

###

Test system: Mus musculus
Assay: Average weight of the mouse after treating with 40 mg/kg dose for 1 day.
Assay type: functional
Design: unit not given here
measured-quantity: Average weight

compound | Average weight
CCCOC(=O)CCC(NC(=O)c1ccc(N(C)Cc2cnc3nc(N)nc(N)c3n2)cc1)C(=O)OCCC (stereo not given) | 21.1

// Input: Cc1cc(C)c(COC(=O)CCC(NC(=O)c2ccc(N(C)Cc3cnc4nc(N)nc(N)c4n3)cc2)C(=O)OCc2c(C)cc(C)cc2C)c(C)c1 (stereo not given) . Output its Average weight only.
22

// Input: CC(C)CCOC(=O)CCC(NC(=O)c1ccc(N(C)Cc2cnc3nc(N)nc(N)c3n2)cc1)C(=O)OCCC(C)C (stereo not given) . Output its Average weight only.
23.2

// Input: CC(C)CCOC(=O)CCC(NC(=O)c1cc(Cl)c(N(C)Cc2cnc3nc(N)nc(N)c3n2)c(Cl)c1)C(=O)OCCC(C)C (stereo not given) . Output its Average weight only.
21.2

// Input: Cc1ccc(C)c(COC(=O)CCC(NC(=O)c2ccc(N(C)Cc3cnc4nc(N)nc(N)c4n3)cc2)C(=O)OCc2cc(C)ccc2C)c1 (stereo not given) . Output its Average weight only.
20.7

// Input: CCOCCOC(=O)CCC(NC(=O)c1ccc(N(C)Cc2cnc3nc(N)nc(N)c3n2)cc1)C(=O)OCCOCC (stereo not given) . Output its Average weight only.
23.1

// Input: CCCCOC(=O)C(CCC(=O)OCc1cccnc1)NC(=O)c1ccc(N(C)Cc2cnc3nc(N)nc(N)c3n2)cc1 (stereo not given) . Output its Average weight only.
21.2

###

System: Mus musculus
Test: Average weight of the mouse after treating with 20 mg/kg dose for 1 day.
Type: functional
Design: unit not given here
Measured Average weight, listed per entry for reference.
Could you keep your reply to the number by itself?

compound | Average weight
CCCOC(=O)CCC(NC(=O)c1ccc(N(C)Cc2cnc3nc(N)nc(N)c3n2)cc1)C(=O)OCCC (stereo not drawn) | 21.4

// Input: CC(C)CCOC(=O)CCC(NC(=O)c1cc(Cl)c(N(C)Cc2cnc3nc(N)nc(N)c3n2)c(Cl)c1)C(=O)OCCC(C)C (stereo not drawn) . Output its Average weight only.
22.1

// Input: Cc1ccc(C)c(COC(=O)CCC(NC(=O)c2ccc(N(C)Cc3cnc4nc(N)nc(N)c4n3)cc2)C(=O)OCc2cc(C)ccc2C)c1 (stereo not drawn) . Output its Average weight only.
22

###

Measured ILS at 20 mg/kg, listed per entry for reference.
Tested on: L1210
Assay: In vivo antitumor activity against L1210 leukemia in 5 mice measured as Increased life span at 20 mg/kg.
Type: functional
Conditions: Mus musculus
Give just the number in %; leave the unit off.

compound | ILS at 20 mg/kg [%]
CN(Cc1cnc2nc(N)nc(N)c2n1)c1ccc(C(=O)NC(CCC(=O)OCc2cccnc2)C(=O)OCc2cccnc2)cc1 (stereo not drawn) | 77
Cc1cc(C)c(COC(=O)CCC(NC(=O)c2ccc(N(C)Cc3cnc4nc(N)nc(N)c4n3)cc2)C(=O)OCc2c(C)cc(C)cc2C)c(C)c1 (stereo not drawn) | 44

Continue with the next compound.
// Input: CCCC(C)OC(=O)CCC(NC(=O)c1cc(Cl)c(N(C)Cc2cnc3nc(N)nc(N)c3n2)c(Cl)c1)C(=O)OC(C)CCC (stereo not drawn) . Output its ILS at 20 mg/kg only.
55
